# System: MKL-2
# method: qHTS assay to identify novel small-molecules to repurpose for Merkel cell carcinoma treatment (AID 1296009); also: nearly all actives have a fitted effect of over 60% in size
# condition: MCC and control cell lines, CellTiter-Glo viability, 72 h; series mostly up to 46 µM
# Description: MCC is a rare and aggressive neuroendocrine skin cancer with limited treatment options. Approximately 80% of MCCs have the Merkel cell polyomavirus (MCPyV) DNA integrated into the host genome (virus-positive: VP-MCC) and viral oncogenes drive oncogenesis. The remaining MCCs are virus-negative (VN-MCC) and are caused by UV mutagenesis. […] Using cell viability as a readout (CellTiter-Glo assay) we found both overlapping and distinct drugs that can be repurposed for the treatment of VP-MCC and VN-MCC. […]
Records with an inconclusive call do not appear. Activity calls are given as the source filed them. Calls follow the shape of the dose curve; as a rule, active = well fitted inhibition curve with a large enough effect; inconclusive = small, poorly fitted or top-dose-only effect; inactive = flat fitted curve, though single readings scatter.
Labels: YES = active, NO = inactive

[O-][n+]1cccc(CO)c1 | NO
CC1(C)[C@@H]2CC[C@@]1(C)C(=O)C2 | NO
NC(=O)NC(=O)Cc1ccccc1 | NO
COc1ccc2cc1Oc1ccc(cc1)C[C@H]1c3c(cc4c(c3Oc3cc5c(cc3OC)CCN(C)[C@@H]5C2)OCO4)CCN1C | YES
CN(C)CCOC(C)(c1ccccc1)c1ccccn1 (stereo unspecified) | NO
CCOC(=O)c1ccc(O)cc1 | NO
Cc1cc(CC(=O)O)n(C)c1C(=O)c1ccc(Cl)cc1 | NO
CN1CCCCC1CCN1c2ccccc2Sc2ccc(S(C)=O)cc21 (stereo unspecified) | NO
CC(C)C(=O)c1c(C(C)C)nn2ccccc12 | NO
Cc1cc(O)cc2c1O[C@](C)(CCC[C@H](C)CCC[C@H](C)CCCC(C)C)CC2 | NO
C[C@H](N)[C@H](O)c1cccc(O)c1 | NO
Cn1cc[nH]c1=S | NO
O=C1OC(OC(=O)c2cccnc2Nc2cccc(C(F)(F)F)c2)c2ccccc21 (stereo unspecified) | NO
CCCCOc1cc(C(=O)OCCN(CC)CC)ccc1N | NO
CCN(CC)CCNC(=O)c1c(C)[nH]c(/C=C2\C(=O)Nc3ccc(F)cc32)c1C | YES
CCCCC(CC)COC(=O)c1ccccc1O (stereo unspecified) | NO
C=CCn1c(=O)n([C@@H]2O[C@H](CO)[C@@H](O)[C@H]2O)c2nc(N)[nH]c(=O)c21 | NO
NCC(=O)CCC(=O)O | NO
Oc1cn2c(n1)Nc1ccc(Cl)c(Cl)c1C2 | NO
CC[C@@]1(c2ccccc2)NC(=O)N(C)C1=O | NO
CN(C)CCN(Cc1ccccc1)c1ccccn1 | NO
CCCCN1CCCC[C@H]1C(=O)Nc1c(C)cccc1C | NO
C[C@H](NC(CCc1ccccc1)C(=O)O)C(=O)N1CCC[C@H]1C(=O)O (stereo partly specified) | NO
CC1(C)CO[C@@H](CC(=O)O)CN1 | NO
CCN(CC)CCOC(=O)C1(C2CCCCC2)CCCCC1 | NO
O=c1cc(CO)occ1O | NO

###

# method: Drug repurposing screens with cells derived from glioblastoma tumor samples (AID 1345199); also: % is scaled to controls: 0 for no effect and ±100 for the full control effect; nearly all actives have a fitted effect of over 40% in size
# condition: GBM patient neurospheres viability, ATP luminescence, 48 h; at 45.9 µM (top of the series); tumour line B
Results filed as inconclusive are left out.
recorded endpoint: activity, negative = cell killing (%)

C[C@H](NC(CCc1ccccc1)C(=O)O)C(=O)N1CCC[C@H]1C(=O)O (stereo not given in full) | -5.92
[O-][n+]1cccc(CO)c1 | -6.72
O=C1OC(OC(=O)c2cccnc2Nc2cccc(C(F)(F)F)c2)c2ccccc21 (stereo not given) | -18.8
O=C1N=C(O)CN1/N=C/c1ccc(-c2ccc([N+](=O)[O-])cc2)o1 | -7.61
Nc1ccc(S(=O)(=O)Nc2nccs2)cc1 | -4.74
O=C1c2c(O)cccc2Cc2cccc(O)c21 | -7.97
CC(C)(C(=O)O)c1ccc(C(O)CCCN2CCC(C(O)(c3ccccc3)c3ccccc3)CC2)cc1 (stereo not given) | 0.768
NC1CCN(c2cccc(Cl)n2)CC1 | -8.95
CN(C)CCOC(C)(c1ccccc1)c1ccccn1 (stereo not given) | -6.13
C[C@@H]1CN(c2c(F)c(F)c3c(=O)c(C(=O)O)cn(C4CC4)c3c2F)C[C@H](C)N1 | -1.06
CC1(C)OC(=O)NC1=O | -11.2
O=C1NC(=O)[C@@]2(CCOc3ccc(F)cc32)N1 | -4.87
CC(=O)CCC(=O)O | -11.2
CCCOC(=O)c1ccccc1 | -11.5
O=C1Nc2ccc(Cl)cc2[C@@](C#CC2CC2)(C(F)(F)F)O1 | -20.8
CCCCc1ncc(/C=C(\Cc2cccs2)C(=O)O)n1Cc1ccc(C(=O)O)cc1 | -7.78
O=C(O)c1ccccn1 | -12
O=C(O)c1ccccc1-c1ccc(C(F)(F)F)cc1 | -7.48
CC(=O)OCC(=O)[C@@]1(O)CC[C@H]2[C@@H]3CCC4=CC(=O)CC[C@]4(C)[C@H]3C(=O)C[C@@]21C | -22
CC(C)C(=O)c1c(C(C)C)nn2ccccc12 | -5.19
CN(C)CCCO[C@@H]1[C@H]2OC(C)(C)O[C@H]2O[C@@H]1C(O)CO (stereo not given in full) | -1.76
CC(O)CN(CCN(CC(C)O)CC(C)O)CC(C)O (stereo not given) | -16.3
CCCCOC(=O)c1ccc(O)cc1 | -17.3
Oc1ccc(C(O)CNCCCCCCNCC(O)c2ccc(O)c(O)c2)cc1O (stereo not given) | -10.1
Nc1cc(=O)[nH]c(N)n1 | 1
